The origin of these recorded values is ChEMBL document CHEMBL1122329.

I'd appreciate it if you could supply ED50 values for the items below.
System: Mus musculus
Assay explanation: Cataleptogenic action in mice on peroral administration
Assay type: functional
Assay context: po

Cl.Cl.c1ccc(N2CCN(CCCOc3ccc4c(c3)CCC4)CC2)cc1
> 100 mg/kg

For the 3 compounds below, give their ED50 values.
1. Cl.Cl.Fc1cc2c(cc1OCCCN1CCN(c3ccccc3)CC1)CCC2
2. CN1C(=O)CN=C(c2ccccc2)c2cc(Cl)ccc21
3. CN(C)CCCN1c2ccccc2Sc2ccc(Cl)cc21

Reply:
1. > 100 mg/kg
2. > 30 mg/kg
3. 17 mg/kg

Task item: Give the reported ED50 for CNC1=Nc2ccc(Cl)cc2C(c2ccccc2)=[N+]([O-])C1 [CHLORDIAZEPOXIDE] (system: Mus musculus).
Reply: > 30 mg/kg

----------
Assay explanation: Toxicity on peroral administration to mice
Format: organism-based
Assay context: mouse, in vivo, po
Exercise: for every item that follows, state its recorded LD50.

Solved entries (count: 4):
Cl.Cl.Fc1ccc(N2CCN(CCCOc3ccc4c(c3)CCC4)CC2)cc1
> 2000 mg/kg
Cl.Cl.c1ccc(N2CCN(CCCOc3ccc4c(c3)CCC4)CC2)cc1
> 1500 mg/kg
Cl.Cl.Fc1cc2c(cc1OCCCN1CCN(c3ccccc3)CC1)CCC2
> 2000 mg/kg
Cc1cc2c(cc1OCCCN1CCN(c3ccccc3)CC1)CCC2.Cl.Cl
> 2000 mg/kg

Task item: Looking for the measured LD50 of CNC1=Nc2ccc(Cl)cc2C(c2ccccc2)=[N+]([O-])C1 [CHLORDIAZEPOXIDE] , can you help?
Reply: 700 mg/kg
